The origin of these recorded values is patent US11033539B2.

Reported Ki is given for each of the following compounds.
Assay system: human M1 receptor (Homo sapiens (Human))
Sequence (P11229 whole entry): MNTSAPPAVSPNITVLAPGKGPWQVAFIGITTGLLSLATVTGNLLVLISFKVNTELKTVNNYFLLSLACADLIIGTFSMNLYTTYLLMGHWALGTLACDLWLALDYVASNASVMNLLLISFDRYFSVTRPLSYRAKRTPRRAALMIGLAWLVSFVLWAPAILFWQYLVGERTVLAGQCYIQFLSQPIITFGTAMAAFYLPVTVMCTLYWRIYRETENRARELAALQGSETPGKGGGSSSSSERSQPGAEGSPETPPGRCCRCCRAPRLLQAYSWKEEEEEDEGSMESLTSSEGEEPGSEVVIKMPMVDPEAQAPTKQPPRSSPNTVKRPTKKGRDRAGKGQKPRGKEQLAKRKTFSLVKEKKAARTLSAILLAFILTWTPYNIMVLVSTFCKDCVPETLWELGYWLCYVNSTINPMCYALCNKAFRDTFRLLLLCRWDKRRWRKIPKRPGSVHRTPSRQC
Test protocol: Radioligand (tritiated N-methylscopolamine) binding assay, M1
Particulars: CHO cell membranes expressing human M1; 1.5 nM tritiated N-methylscopolamine; 90 min, 37° C.; read-out: Ki against M1 receptor (Table 21, M1)
Recorded endpoint: Ki

Compound: C[C@@H]1CN(c2ccc(C(F)(F)F)cn2)CCN1C(=O)NCCC1CCN(Cc2ccccc2)CC1 [3-14]
Assay system: human M1 receptor (Homo sapiens (Human))
Recorded endpoint: Ki
Observed measurement: 100 to 1000 nM

Compound: C[C@@H]1CN(c2ncc(C(F)(F)F)cc2F)CCN1C(=O)NCCC1CCN(Cc2ccccc2)CC1 [3-10]
Assay system: human M1 receptor (Homo sapiens (Human))
Recorded endpoint: Ki
Observed measurement: 100 to 1000 nM

Compound: C[C@@H]1CN(c2ccc(C#N)cn2)C[C@H](C)N1C(=O)NCCC1CCN(Cc2ccccc2)CC1 [3-23]
Assay system: human M1 receptor (Homo sapiens (Human))
Recorded endpoint: Ki
Observed measurement: > 1000 nM

Compound: C[C@@H]1CN(c2cnc(Cl)c(F)c2)C[C@H](C)N1C(=O)NCCC1CCN(Cc2ccccc2)CC1 [22-8]
Assay system: human M1 receptor (Homo sapiens (Human))
Recorded endpoint: Ki
Observed measurement: 100 to 1000 nM

Compound: C[C@@H]1CN(c2ncc(C#N)cn2)C[C@H](C)N1C(=O)NCCC1CCN(Cc2cccc(F)c2)CC1 [6-46]
Assay system: human M1 receptor (Homo sapiens (Human))
Recorded endpoint: Ki
Observed measurement: > 1000 nM

Compound: C[C@@H]1CN(c2cnc(C(F)(F)F)cn2)C[C@@H](C)N1C(=O)NCCC1CCN(Cc2ccccc2)CC1 [26-4]
Assay system: human M1 receptor (Homo sapiens (Human))
Recorded endpoint: Ki
Observed measurement: > 1000 nM

Compound: C[C@@H]1CN(c2ccc(C(F)(F)F)cc2)CCN1C(=O)NCCC1CCN(Cc2ccccc2)CC1 [4-5]
Assay system: human M1 receptor (Homo sapiens (Human))
Recorded endpoint: Ki
Observed measurement: 100 to 1000 nM

Compound: C[C@@H]1CN(C(=O)NCCC2CCN(Cc3ccccc3)CC2)CCN1c1cc(F)c(F)c(F)c1 [4-17]
Assay system: human M1 receptor (Homo sapiens (Human))
Recorded endpoint: Ki
Observed measurement: > 1000 nM
